Attribution: paper PMC8298264

System: human HL60 cells
assay-text: SWATH-MS proteomics, differential protein representation, akirin2 KO vs WT HL60 cells
Type: cell-based
condition-context: KO vs WT HL60 cells; sheet "Under-represented in KO"
result-type: Log (Fold Change)

- sp¦Q9NUQ9¦CYRIB_HUMAN (protein, UniProt Q9NUQ9 2-324, looked up) CYFIP-related Rac1 interactor …: GNLLKVLTCTDLEQGPNFFLDFENAQPTESEKEIYNQVNVVLKDAEGILEDLQSYRGAGHEIREAIQHPADEKLQEKAWGAVVPLVGKLKKFYEFSQRLEAALRGLLGALTSTPYSPTQHLEREQALAKQFAEILHFTLRFDELKMTNPAIQNDFSYYRRTLSRMRINNVPAEGENEVNNELANRMSLFYAEATPMLKTLSDATTKFVSENKNLPIENTTDCLSTMASVCRVMLETPEYRSRFTNEETVSFCLRVMVGVIILYDHVHPVGAFAKTSKIDMKGCIKVLKDQPPNSVEGLLNALRYTTKHLNDETTSKQIKSMLQ: -0.3146
